Sourced from patent US9573961B2

target-or-system: Kir1.1 (ROMK1) (Homo sapiens (Human))
Sequence (P48048 whole entry): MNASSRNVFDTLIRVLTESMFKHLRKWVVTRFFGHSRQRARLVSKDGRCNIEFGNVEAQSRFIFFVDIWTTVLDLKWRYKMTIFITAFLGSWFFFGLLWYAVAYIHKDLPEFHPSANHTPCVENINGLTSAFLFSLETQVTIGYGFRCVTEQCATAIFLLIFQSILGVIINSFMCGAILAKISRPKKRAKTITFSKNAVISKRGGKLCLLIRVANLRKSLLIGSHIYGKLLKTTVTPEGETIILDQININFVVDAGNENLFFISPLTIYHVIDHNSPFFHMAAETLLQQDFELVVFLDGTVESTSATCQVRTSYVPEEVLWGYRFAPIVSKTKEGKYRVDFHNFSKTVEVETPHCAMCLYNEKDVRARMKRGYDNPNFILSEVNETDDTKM
method-description: Electrophysiology Assay (whole cell voltage clamp, IonWorks Quattro)
Assay type: cell-based
experimental-setup: Electrophysiology IC50, Chinese hamster ovary cells stably expressing Kir1.1; block during voltage step to 0 mV
Assign labels as follows, please: yes for IC50 below 200 nM; no for IC50 equal to or exceeding 200 nM.

// query Answer whether the molecule `COc1cc(CC(=O)N2CCN3C[C@@H](c4ccc5c(c4)CCOC5=O)OC[C@@H]3C2)ccc1C#N` has IC50 strictly less than 200 nM
// result yes

// query Answer whether the molecule `Cc1c([C@H]2CN3CCN(C(=O)Cc4ccc(-n5cnnn5)cc4)C[C@H]3CN2)ccc(F)c1C#N` has IC50 strictly less than 200 nM
// result yes

// query Answer whether the molecule `COc1cc(F)c([C@@H]2CN3CCN(C(=O)Cc4ccc(-n5cnnn5)cc4)C[C@H]3CO2)cc1C#N` has IC50 strictly less than 200 nM
// result no

// query Answer whether the molecule `Cc1c([C@H]2CN3CCN(C(=O)Cc4ccc(-n5cnnn5)cc4)C[C@H]3CO2)ccc2c1COC2=O` has IC50 strictly less than 200 nM
// result no

// query Answer whether the molecule `Cc1c([C@H]2CN3CCN(C(=O)Cc4ccc(-n5cnnn5)cc4)C[C@H]3CO2)ccc(Cl)c1C#N` has IC50 strictly less than 200 nM
// result no

// query Answer whether the molecule `COc1c([C@H]2CN3CCN(C(=O)Cc4ccc(-n5cnnn5)cc4)C[C@H]3CO2)ccc(F)c1C#N` has IC50 strictly less than 200 nM
// result yes

// query Answer whether the molecule `Cc1c([C@@H]2CN3CCN(C(=O)Cc4ccc(-n5cnnn5)cc4)C[C@H]3CO2)ccc2c1COC2=O` has IC50 strictly less than 200 nM
// result yes

// query Answer whether the molecule `COc1cc(CC(=O)N2CCN3C[C@@H](c4ccc5c(c4)COC5=O)OC[C@@H]3C2)c(F)cc1C#N` has IC50 strictly less than 200 nM
// result yes

// query Answer whether the molecule `C[C@@H]1Cc2cc([C@@H]3CN4CCN(C(=O)Cc5c(F)cc(-n6cnnn6)cc5F)C[C@H]4CN3)ccc2C(=O)O1` has IC50 strictly less than 200 nM
// result yes
